test system: UO-31 renal; assay: NCI tumour cell line growth inhibition, 48 h
Recorded TGI by entry

compound=O=C1NC2(CCCC2)/C(=N\O)C12CCCC2 assay_value="> 100 µM"
compound=COc1cc(OC)cc(-n2c(N)c(-c3nc4ccccc4s3)c3ccc([N+](=O)[O-])cc3c2=O)c1 assay_value="> 100 µM"

Attention now turns to another entry.
Q. Name the recorded TGI for CCCCNC(=O)OCC(COc1ccccc1OC)OC(=O)NCCCC (stereo not drawn) .
A. > 100 µM

---

Recorded TGI by entry
tested on: SNB-19 CNS; experiment: NCI tumour cell line growth inhibition, 48 h

compound=COC(=O)c1ccc(/C=C2\Cc3ccccc3C2=O)cc1 assay_value="> 100 µM"
compound="CC1(C(=O)NCCN(CCNC(=O)C2(C)CC3(C)CC(C)(C2)C(=O)NC3=O)CCNC(=O)C2(C)CC3(C)CC(C)(C2)C(=O)NC3=O)CC2(C)CC(C)(C1)C(=O)NC2=O (stereo not given)" assay_value="> 100 µM"
compound="CCOC(=O)CCC(NC(=O)c1ccc(Nc2cnc3cc(C(F)(F)F)ccc3n2)cc1)C(=O)OCC (stereo not given)" assay_value="> 47.8 µM"
compound=CCNc1nc(N)c(C(=O)c2cccs2)s1 assay_value="> 100 µM"

Q. Name the recorded TGI for Cc1nc2c(=O)n(C)c(=O)nc-2n(CCO)c1C .
A. > 100 µM
